EXPERIMENTAL_SYSTEM: Full-length glucokinase (beta cell isoform) (Homo sapiens)
Construct: Full-length glucokinase (beta cell isoform) was His-tagged at N-terminus; His tag (N); made in house; host or cells: E. coli BL21(DE3) carrying the pBCGK vector
ASSAY: In vitro glucokinase activation assay (PK/LDH coupled, NADH depletion at 340 nm)
Type: biochemical
APPLIED_CONDITIONS: 5 mM glucose, 2.5 mM ATP, pH 7.1; (Va/Vo−1)×100 fitted; read-out: Maximum Activation (%)
PARAMETER_MEASURED: Emax

INSERT INTO assay_data (smiles_repr, reading) VALUES
  ('COc1cnc(NC(=O)c2cc(Oc3cnc(C(=O)N(C)C)nc3)c3cc(C)oc3c2)cn1', '69.5%'),
  ('CCN(C)C(=O)c1ncc(Oc2cc(C(=O)Nc3ccn(C)n3)cc3oc(C)cc23)cn1', '54.1%'),
  ('CCN(C)C(=O)c1cnc(Oc2cc(C(=O)Nc3cnc(C)cn3)cc3oc(C)cc23)cn1', '63.4%'),
  ('Cc1cc2c(Oc3cnc(C(=O)N(C)C)nc3)cc(C(=O)Nc3ccn(C)n3)cc2o1', '63.9%'),
  ('CCN(C)C(=O)c1ncc(Oc2cc(C(=O)Nc3cnc(C)cn3)cc3oc(C)cc23)cn1', '57.6%');

---

EXPERIMENTAL_SYSTEM: Full-length glucokinase (beta cell isoform) (Homo sapiens, UniProt P35557)
Construct: Full-length glucokinase (beta cell isoform) was His-tagged at N-terminus; His tag (N)
Sequence (P35557 whole entry, canonical isoform): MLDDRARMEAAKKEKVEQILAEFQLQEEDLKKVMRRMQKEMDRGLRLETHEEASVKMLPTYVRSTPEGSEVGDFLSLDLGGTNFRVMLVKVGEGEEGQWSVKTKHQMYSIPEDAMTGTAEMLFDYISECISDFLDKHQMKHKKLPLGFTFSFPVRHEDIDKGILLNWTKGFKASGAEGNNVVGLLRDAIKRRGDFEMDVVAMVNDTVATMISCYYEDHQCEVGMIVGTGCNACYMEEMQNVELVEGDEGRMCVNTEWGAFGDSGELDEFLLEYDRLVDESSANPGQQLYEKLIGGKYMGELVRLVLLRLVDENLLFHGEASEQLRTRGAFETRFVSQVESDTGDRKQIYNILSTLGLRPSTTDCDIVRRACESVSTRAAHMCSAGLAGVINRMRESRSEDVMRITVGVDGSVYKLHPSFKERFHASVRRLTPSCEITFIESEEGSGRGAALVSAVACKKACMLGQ
ASSAY: In vitro glucokinase activation assay (PK/LDH coupled, NADH depletion at 340 nm)
APPLIED_CONDITIONS: 5 mM glucose, 2.5 mM ATP, pH 7.1, room temperature
Values of EC50 strictly less than 500 nM map to Y, and values of at least 500 nM map to N.

INSERT INTO assay_data (molecule, assigned_label) VALUES
  ('CCN(C)C(=O)c1ncc(Oc2cc(C(=O)Nc3ccn(C)n3)cc3oc(C)cc23)cn1 [Example 6]', 'Y'),
  ('CCN(C)C(=O)c1ncc(Oc2cc(C(=O)Nc3cnc(C)cn3)cc3oc(C)cc23)cn1 [Example 5]', 'N'),
  ('COc1cnc(NC(=O)c2cc(Oc3cnc(C(=O)N(C)C)nc3)c3cc(C)oc3c2)cn1 [Example 3]', 'Y'),
  ('CCN(C)C(=O)c1cnc(Oc2cc(C(=O)Nc3cnc(C)cn3)cc3oc(C)cc23)cn1 [Example 7]', 'Y'),
  ('Cc1cc2c(Oc3cnc(C(=O)N(C)C)nc3)cc(C(=O)Nc3ccn(C)n3)cc2o1 [Example 4]', 'N');

Reference for the values: patent US8735396B2
